Ref: patent US20220324953A1

system-tested: T1, human CTGF (antigen of the Biacore assays) (human, UniProt P29279 27-349)
T1 construct: also called antigen human CTGF; human CTGF protein
T1 sequence (looked up): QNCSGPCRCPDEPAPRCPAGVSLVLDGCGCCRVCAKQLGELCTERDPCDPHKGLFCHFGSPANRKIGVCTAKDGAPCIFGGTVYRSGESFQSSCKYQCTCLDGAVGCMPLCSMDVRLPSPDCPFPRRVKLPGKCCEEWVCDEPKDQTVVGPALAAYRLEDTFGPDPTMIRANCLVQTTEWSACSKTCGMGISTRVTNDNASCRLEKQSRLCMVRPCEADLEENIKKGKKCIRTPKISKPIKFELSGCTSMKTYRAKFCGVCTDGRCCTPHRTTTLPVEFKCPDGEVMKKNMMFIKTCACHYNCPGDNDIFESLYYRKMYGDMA
experiment: Biacore, antibody captured on Protein A, CTGF in flow, 1:1 fit
readout: Kd (nM)
Field: numeric (nM). Do not append units.

Example entries begin here.
>  <binder>
Hu147-11wk (antibody, human IgG1, kappa, V domains shown) VH: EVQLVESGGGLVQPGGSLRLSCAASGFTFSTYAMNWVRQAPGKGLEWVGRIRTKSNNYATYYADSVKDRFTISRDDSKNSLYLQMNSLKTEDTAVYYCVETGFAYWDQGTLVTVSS VL: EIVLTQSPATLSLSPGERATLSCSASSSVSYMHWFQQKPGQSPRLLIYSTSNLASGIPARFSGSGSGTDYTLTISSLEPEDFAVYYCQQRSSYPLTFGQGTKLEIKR

>  <units>
nM

>  <Kd>
1.13

$$$$
>  <binder>
Hu164-57wl (antibody, human IgG1, lambda, V domains shown) VH: EVTLKESGPVLVKPTETLTLTCTVSGFSLSTFGVHWIRQPPGKALEWLAVIWRRGGTDYNAAFMSRLTISKDTSKSQVVLTMTNMDPVDTATYYCARDGGFDYWGQGTTVTVSS VL: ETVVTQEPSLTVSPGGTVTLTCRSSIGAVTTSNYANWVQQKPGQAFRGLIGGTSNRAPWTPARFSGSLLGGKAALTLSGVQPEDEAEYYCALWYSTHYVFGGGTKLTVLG

>  <units>
nM

>  <Kd>
0.0691

$$$$

What Kd value was documented for this binder, Hu95-31wk (antibody, human IgG1, kappa, V domains shown) VH: EVQLVQSGAEVKKPGASVKVSCKASGFTFTNYDIHWVKQAPGQRLEWMGLVYPYNGGTAYNQKFKDKVTLTFDTSASTAYMELSSLRSEDTAVYYCARWGLIPGTTSYFDVWGQGTTVTVSS VL: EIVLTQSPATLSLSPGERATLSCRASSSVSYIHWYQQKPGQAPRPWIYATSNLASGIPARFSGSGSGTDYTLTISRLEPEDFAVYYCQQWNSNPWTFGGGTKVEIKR ?
5.84
